Where do these numbers come from? They come from patent US20080194482A1.

# systemTested: T1, human VPAC2 receptor (human, UniProt P41587 24-438)
# T1 sequence (looked up): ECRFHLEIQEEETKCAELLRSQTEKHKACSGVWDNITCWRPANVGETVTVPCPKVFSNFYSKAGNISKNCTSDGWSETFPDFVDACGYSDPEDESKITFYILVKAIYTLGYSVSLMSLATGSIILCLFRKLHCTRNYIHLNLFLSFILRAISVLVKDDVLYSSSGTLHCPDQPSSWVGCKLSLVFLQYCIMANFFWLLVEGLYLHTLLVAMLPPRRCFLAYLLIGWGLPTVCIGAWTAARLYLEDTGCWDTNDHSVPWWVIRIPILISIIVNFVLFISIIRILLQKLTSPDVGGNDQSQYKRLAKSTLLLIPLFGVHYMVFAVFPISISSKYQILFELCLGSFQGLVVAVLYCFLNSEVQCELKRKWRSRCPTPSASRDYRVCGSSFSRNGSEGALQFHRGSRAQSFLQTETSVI
# experimentNotes: cell-based or functional assay
Numbered stars: 1 amine (or outer) side, 2 acyl side, 3 side chain; on linkers, the order of the positions; unused ones are H or OH. Square brackets hold non-standard residues; d marks the D form. Ends that are not written are not given here. * marks the point of attachment. Tyr(OMe) = O-methyl-tyrosine, COc1ccc(C[C@H](N[*:1])C(=O)[*:2])cc1; Orn = NCCC[C@H](N)C(=O)O; Hexanoyl = CCCCCC(=O)*; Aib = CC(C)(N)C(=O)O
observedProperty: Human VPAC2 Receptor: Alpha Screen (EC50; nM), cAMP generation
Write the value in nM as a bare number.

HSDAVFTDNYTXLRXQVAAXKYLQSSXNXGGPSSGAPPPS (N-terminal hexanoyl (C6); Orn at 12, 27 and 29; Aib at 15 and 20) [VPAC2 receptor peptide agonist P382]
0.33

Returns the measured Human VPAC2 Receptor: Alpha Screen (EC50; nM), cAMP generation for the input binder. Input: Hexanoyl-HSDAVFTDQYT[Orn]LR[Aib]QVAA[Aib]KYLQSI[Orn]Q[Orn]GGPSSGAPPPS [VPAC2 receptor peptide agonist P363]
0.27

Fill in the blank: the reported Human VPAC2 Receptor: Alpha Screen (EC50; nM), cAMP generation of Hexanoyl-HSEAVFTEQ[Tyr(OMe)]TR[Aib]R[Aib]QLAA[Aib]KYLQSIK[Aib]KGGPSSGAPPPS [VPAC2 receptor peptide agonist P409] is ____.
0.19

Find the recorded Human VPAC2 Receptor: Alpha Screen (EC50; nM), cAMP generation belonging to Hexanoyl-HSDAVFTDQYTR[Aib]R[Aib]QLAA[Aib]KYLQSIK[Aib]KGGPSSGAPPPS [VPAC2 receptor peptide agonist P407] and report it.
0.12

Param item = HSDAVFTDNYTXLRXQVAAXKSLQSIXNXGGPSSGAPPPS (N-terminal hexanoyl (C6); Orn at 12, 27 and 29; Aib at 15 and 20) [VPAC2 receptor peptide agonist P385] ; retrieve measured Human VPAC2 Receptor: Alpha Screen (EC50; nM), cAMP generation.
23.9

Query (binder): Hexanoyl-HSDAVFTDNYTQLR[Aib]QVAA[Aib]KYLQSI[Orn]N[Orn]GGPSSGAPPPS [VPAC2 receptor peptide agonist P368] ; field requested: Human VPAC2 Receptor: Alpha Screen (EC50; nM), cAMP generation
1.09
